- System: HSkMC
- PROTOCOL_DETAILS: cytotoxicity call (relative viability < 0.9)
- RECORDED_CONDITIONS: 10 µM
In all, about 39,000 compounds went through this assay and about 1,500 (3.8%) were called active. Shown is part of a subset that was picked to be rich in actives.
Respond using exactly one of the listed classes: label 1 (active), label 0 (inactive)

Query: // return assay outcome for `O=C1CN(S(=O)(=O)Cc2ccccc2)C[C@H]2[C@H](c3ccc(C#Cc4ccc(F)cc4)cc3)[C@@H](CO)N12`
Response: label 1

Query: What is the recorded call for this molecule in the test? `O=C1CN(S(=O)(=O)Cc2ccccc2)C[C@H]2[C@@H](c3ccc(C#Cc4ccc(F)cc4)cc3)[C@@H](CO)N12`
Response: label 0

Query: Per the assay record, what outcome was assigned to `O=C1CN(S(=O)(=O)Cc2ccccc2)C[C@H]2[C@@H](c3ccc(C#Cc4ccc(F)cc4)cc3)[C@H](CO)N12` ?
Response: label 0

Query: Status in this test for `O=C1CN(S(=O)(=O)Cc2ccccc2)C[C@@H]2[C@H](c3ccc(C#Cc4ccc(F)cc4)cc3)[C@H](CO)N12` ?
Response: label 1

* * *

- System: HSkMC (human skeletal muscle cells)
- PROTOCOL_DETAILS: cytotoxicity call (relative viability < 0.9)
- RECORDED_CONDITIONS: 10 µM
Out of some 39,000 compounds screened, about 1,500 (3.8%) were called active. The sample holds actives, similar compounds and a random draw of the others, so the mix is not that of the screen.
Returns: one label drawn from active, inactive

Please review the entries below; each comes with its answer.
INSERT INTO measurements (entry_smiles, category_label) VALUES
  ('COCC#Cc1ccc2c(c1)O[C@@H](CN(C)C(=O)COC)[C@H](C)CN([C@@H](C)CO)S2(=O)=O', 'inactive'),
  ('C[C@H]1CN([C@@H](C)CO)C(=O)c2cccc(NC(=O)Nc3ccc4c(c3)OCO4)c2O[C@H]1CN(C)Cc1ccc(C(F)(F)F)cc1', 'inactive'),
  ('COCC(=O)Nc1ccc2c(c1)C(=O)N(C)C[C@@H](OC)[C@@H](C)CN(Cc1ccccc1OC)[C@@H](C)CO2', 'inactive'),
  ('C[C@@H]1CN([C@@H](C)CO)C(=O)c2cccc(NC(=O)Nc3ccc4c(c3)OCO4)c2O[C@H]1CN(C)Cc1ccc(C(F)(F)F)cc1', 'active'),
  ('COC(=O)C[C@H]1CC[C@H](N)[C@@H](CO)O1', 'inactive'),
  ('C[C@H]1CN([C@@H](C)CO)C(=O)c2cccc(NC(=O)Nc3ccc4c(c3)OCO4)c2O[C@@H]1CN(C)Cc1ccc(C(F)(F)F)cc1', 'inactive'),
  ('COC(=O)[C@H](Cc1ccccc1)N1CC2=C[C@@H](C3CC3)n3c(=O)n(C)c(=O)n3[C@H]2[C@@H]1[C@@H](O)CCn1cc(-c2cccc(/C=C/C(=O)NO)c2)nn1', 'inactive'),
  ('C[C@H]1CN([C@@H](C)CO)C(=O)c2cccc(NC(=O)Nc3ccc4c(c3)OCO4)c2O[C@@H]1CN(C)Cc1ccc(-c2ccccc2)cc1', 'inactive'),
  ('C[C@@H]1CN([C@H](C)CO)C(=O)Cc2cc(NC(=O)Cc3cn(C)c4ccccc34)ccc2O[C@@H]1CN(C)Cc1ccc(C(F)(F)F)cc1', 'inactive'),
  ('COc1ccc(NC(=O)N(C)C[C@H]2OCCCC[C@H](C)Oc3ccc(NC(=O)C4CCCCC4)cc3C(=O)N([C@@H](C)CO)C[C@H]2C)cc1', 'inactive');

Query: Lab log entry: `CCS(=O)(=O)Nc1ccc2c(c1)CC(=O)N2` — outcome as called in the assay?
Response: inactive

Query: Just curious, what result did `Cc1noc(C)c1NC(=O)Nc1cccc2c1O[C@H](CN(C)Cc1ccc(Oc3ccccc3)cc1)[C@@H](C)CN([C@@H](C)CO)C2=O` get here?
Response: inactive

Query: Could you please tell me the result logged for `C[C@@H]1CN([C@H](C)CO)C(=O)c2cccc(NC(=O)Nc3ccc4c(c3)OCO4)c2O[C@H]1CN(C)Cc1ccc(Oc2ccccc2)cc1` in this assay?
Response: active
